# TARGET_ENTITY: androgen receptor (hAR) (Homo sapiens (Human), UniProt P10275)
# Sequence (P10275 whole entry): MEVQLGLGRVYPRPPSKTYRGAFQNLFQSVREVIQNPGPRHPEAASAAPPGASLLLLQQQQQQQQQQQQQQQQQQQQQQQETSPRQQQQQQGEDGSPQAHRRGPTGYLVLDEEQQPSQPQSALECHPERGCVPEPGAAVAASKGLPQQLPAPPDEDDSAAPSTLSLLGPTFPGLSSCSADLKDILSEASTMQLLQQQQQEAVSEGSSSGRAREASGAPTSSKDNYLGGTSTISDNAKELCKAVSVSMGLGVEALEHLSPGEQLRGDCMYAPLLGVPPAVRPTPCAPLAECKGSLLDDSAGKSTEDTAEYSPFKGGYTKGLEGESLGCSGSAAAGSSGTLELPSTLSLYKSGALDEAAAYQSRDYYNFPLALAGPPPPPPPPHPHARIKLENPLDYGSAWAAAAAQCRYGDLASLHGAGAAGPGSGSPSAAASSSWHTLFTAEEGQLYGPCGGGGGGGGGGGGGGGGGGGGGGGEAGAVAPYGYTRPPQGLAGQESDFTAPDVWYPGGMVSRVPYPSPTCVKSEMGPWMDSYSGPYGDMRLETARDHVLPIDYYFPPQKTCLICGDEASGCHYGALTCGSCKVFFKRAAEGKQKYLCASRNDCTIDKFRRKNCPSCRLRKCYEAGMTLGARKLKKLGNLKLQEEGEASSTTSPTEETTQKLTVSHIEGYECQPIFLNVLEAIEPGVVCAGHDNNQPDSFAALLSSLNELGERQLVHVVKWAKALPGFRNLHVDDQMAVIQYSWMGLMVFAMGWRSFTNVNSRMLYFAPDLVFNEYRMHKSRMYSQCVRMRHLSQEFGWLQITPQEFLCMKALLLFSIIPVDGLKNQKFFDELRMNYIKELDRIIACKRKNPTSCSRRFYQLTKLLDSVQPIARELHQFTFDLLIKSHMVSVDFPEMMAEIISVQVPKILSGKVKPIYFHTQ
# TEST_METHOD_NOTES: biochemical
# Assay type: binding
# CONDITION_INFO: 1 nM [3H]MIB, hAR-transfected COS-7 cells, 2 hours; read-out: IC50 [nM] (mean ± SE)
ASSAY_METRIC: log10(IC50) (log10 of the value in nM)
Give log10 of IC50, with IC50 taken in nM.

Request: Need log10(IC50) of N#Cc1ccc(OC[C@@H]2CN(c3ccc(C#N)c(C(F)(F)F)c3)[C@H](C(F)(F)F)O2)cc1 [Example 6] , thanks.
Response: 1.04

Request: Need log10(IC50) of N#Cc1ccc(N2C[C@@H](COc3ccc(Cl)cc3)O[C@@H]2C(F)(F)F)cc1C(F)(F)F [Example 56] , thanks.
Response: 1.88

Request: Need log10(IC50) of N#Cc1ccc(N2C[C@H]([C@H](O)C(F)(F)F)O[C@H]2C(F)(F)F)cc1C(F)(F)F [Example 22] , thanks.
Response: 3.27

Request: Need log10(IC50) of N#Cc1ccc(N2C[C@@H]([C@H](O)C(F)(F)F)O[C@@H]2C(F)(F)F)cc1C(F)(F)F [Example 24] , thanks.
Response: 2.15

Request: Need log10(IC50) of N#Cc1ccc(N2C[C@@H]([C@@H](O)C(F)(F)F)O[C@@H]2C(F)(F)F)cc1C(F)(F)F [Example 23] , thanks.
Response: 1.65

Request: Need log10(IC50) of N#Cc1ccc(SC[C@@H]2CN(c3ccc(C#N)c(C(F)(F)F)c3)[C@@H](C(F)(F)F)O2)cc1 [Example 29] , thanks.
Response: 1.15

Request: Need log10(IC50) of N#Cc1ccc(N2C[C@H]([C@@H](O)C(F)(F)F)O[C@H]2C(F)(F)F)cc1C(F)(F)F [Example 21] , thanks.
Response: 3.03

Request: Need log10(IC50) of N#Cc1ccc(N2C[C@@H](COc3ccc([N+](=O)[O-])cc3)O[C@H]2C(F)(F)F)cc1C(F)(F)F [Example 35] , thanks.
Response: 2.27

Request: Need log10(IC50) of CNC(=O)c1ccc(OC[C@@H]2CN(c3ccc(C#N)c(C(F)(F)F)c3)[C@@H](C(F)(F)F)O2)cc1 [Example 32] , thanks.
Response: 1.51

Request: Need log10(IC50) of N#Cc1ccc(N2C[C@@H](COc3ccc([N+](=O)[O-])c(F)c3)O[C@@H]2C(F)(F)F)cc1C(F)(F)F [Example 31] , thanks.
Response: 1.15

Request: Need log10(IC50) of N#Cc1ccc(N2C[C@@H](COc3ccc([N+](=O)[O-])cc3Cl)O[C@@H]2C(F)(F)F)cc1C(F)(F)F [Example 12] , thanks.
Response: 2.16

Request: Need log10(IC50) of N#Cc1ccc(N2C[C@@H](COc3ccc(F)c(F)c3)O[C@@H]2C(F)(F)F)cc1C(F)(F)F [Example 10] , thanks.
Response: 0.80

Request: Need log10(IC50) of N#Cc1ccc(N2C[C@@H](COc3ccc([N+](=O)[O-])cc3)O[C@@H]2C(F)(F)F)cc1C(F)(F)F [Example 8] , thanks.
Response: 1.14

Request: Need log10(IC50) of COc1ccc(OC[C@@H]2CN(c3ccc(C#N)c(C(F)(F)F)c3)[C@@H](C(F)(F)F)O2)cc1 [Example 27] , thanks.
Response: 1.35

Request: Need log10(IC50) of CC(=O)Nc1ccc(OC[C@@H]2CN(c3ccc(C#N)c(C(F)(F)F)c3)[C@@H](C(F)(F)F)O2)cc1 [Example 25] , thanks.
Response: 0.93

====

# TARGET_ENTITY: UniProtKB P10275
# TEST_METHOD_NOTES: biochemical
# Format: binding
# CONDITION_INFO: 1 nM [3H]MIB, hAR-transfected COS-7 cells, 2 hours; read-out: IC50 [nM] (mean ± SE)
ASSAY_METRIC: IC50 (nM)
A number alone suffices; assume nM.

Request: Need IC50 of N#Cc1ccc(COC[C@H]2CN(c3ccc(C#N)c(C(F)(F)F)c3)[C@H](C(F)(F)F)O2)cc1 , thanks.
Response: 657

Request: Need IC50 of N#Cc1ccc(OC[C@H]2CN(c3ccc(C#N)c(C(F)(F)F)c3)[C@H](C(F)(F)F)O2)cc1 , thanks.
Response: 1080

Request: Need IC50 of N#Cc1ccc(N2C[C@@H](COc3cc(F)c(F)cc3F)O[C@@H]2C(F)(F)F)cc1C(F)(F)F , thanks.
Response: 14.5

====

# TARGET_ENTITY: androgen receptor (hAR) (Homo sapiens (Human), UniProt P10275)
# TEST_METHOD_NOTES: biochemical
# Assay type: binding
# CONDITION_INFO: 1 nM [3H]MIB, hAR-transfected COS-7 cells, 2 hours; read-out: IC50 [nM] (mean ± SE)
The entries below are paired with their reported IC50.
A number alone suffices; assume nM.

COC(=O)c1ccc(OC[C@@H]2CN(c3ccc(C#N)c(C(F)(F)F)c3)[C@@H](C(F)(F)F)O2)cc1	15.7

Request: Need IC50 of N#Cc1ccc(N2C[C@@H](CSc3ccc(Cl)cc3)O[C@@H]2C(F)(F)F)cc1C(F)(F)F , thanks.
Response: 43.6

Request: Need IC50 of N#Cc1ccc(N2C[C@@H](COc3ccc([N+](=O)[O-])cc3F)O[C@@H]2C(F)(F)F)cc1C(F)(F)F , thanks.
Response: 10.4

Request: Need IC50 of N#Cc1ccc(COC[C@@H]2CN(c3ccc(C#N)c(C(F)(F)F)c3)[C@@H](C(F)(F)F)O2)cc1 , thanks.
Response: 23.9

====

# TARGET_ENTITY: androgen receptor (hAR) (Homo sapiens (Human), UniProt P10275)
# TEST_METHOD_NOTES: Test of transcriptional activity (hAR / ARE-Luc dual-luciferase assay in CHO cells)
# Assay type: cell-based
# CONDITION_INFO: EC50 [nM] (mean ± SE), CHO cells with hAR and ARE-Luc, 24 hours; 10 nM DHT = 100%
ASSAY_METRIC: log10 of EC50 (log10 of the value in nM)
Give log10 of EC50, with EC50 taken in nM.

# count of solved cases: 6
CNC(=O)Nc1ccc(OC[C@@H]2CN(c3ccc(C#N)c(C(F)(F)F)c3)[C@@H](C(F)(F)F)O2)cc1	1.33
N#Cc1ccc(N2C[C@@H](COc3ccc(CC(=O)O)cc3)O[C@@H]2C(F)(F)F)cc1C(F)(F)F	2.88
N#Cc1ccc(N2C[C@@H](C(=O)Nc3ccc(NC(=O)CO)cc3)O[C@@H]2C(F)(F)F)cc1C(F)(F)F	2.02
N#Cc1ccc(OC[C@@H]2CN(c3ccc(C#N)c(Cl)c3)[C@H](C(F)(F)F)O2)cc1	1.47
N#Cc1ccc(COC[C@@H]2CN(c3ccc(C#N)c(C(F)(F)F)c3)[C@@H](C(F)(F)F)O2)cc1	2.12
N#Cc1ccc(OC[C@@H]2CN(c3ccc(C#N)c(Cl)c3)[C@@H](C(F)(F)F)O2)cc1	0.20

Next:
Request: Lab note: need log10 of EC50 for N#Cc1ccc(OC[C@@H]2CN(c3ccc(C#N)c(C(F)(F)F)c3)[C@@H]([C@@H](O)C(F)(F)F)O2)cc1 on androgen receptor (hAR) (Homo sapiens (Human), UniProt P10275), anyone have it?
Response: 3.18

====

# TARGET_ENTITY: androgen receptor (hAR) (Homo sapiens (Human), UniProt P10275)
# TEST_METHOD_NOTES: biochemical
# Format: binding
# CONDITION_INFO: 1 nM [3H]MIB, hAR-transfected COS-7 cells, 2 hours; read-out: IC50 [nM] (mean ± SE)
The entries below are paired with their reported IC50.
A number alone suffices; assume nM.

CC(=O)Nc1ccc(OC[C@@H]2CN(c3ccc(C#N)c(C(F)(F)F)c3)[C@H](C(F)(F)F)O2)cc1 [Example 30]	142
COc1cccc(OC[C@@H]2CN(c3ccc(C#N)c(C(F)(F)F)c3)[C@@H](C(F)(F)F)O2)c1 [Example 28]	77.2
N#Cc1ccc(OC[C@@H]2CN(c3ccc(C#N)c(C(F)(F)F)c3)[C@@H](C(F)(F)F)O2)c(F)c1 [Example 11]	10.5

Request: Need IC50 of N#Cc1ccc(OC[C@@H]2CN(c3ccc(C#N)c(C(F)(F)F)c3)[C@@H](C(F)(F)F)O2)cc1 [Example 19] , thanks.
Response: 7.6

====

# TARGET_ENTITY: androgen receptor (hAR) (Homo sapiens (Human), UniProt P10275)
# TEST_METHOD_NOTES: biochemical
# Assay type: binding
ASSAY_METRIC: pIC50
To interpret pIC50, take it as minus log10 of a concentration measured in moles per litre.

CN(C)C(=O)c1ccc(OC[C@@H]2CN(c3ccc(C#N)c(C(F)(F)F)c3)[C@@H](C(F)(F)F)O2)cc1	7.62
N#Cc1ccc(OC[C@H]2CN(c3ccc(C#N)c(C(F)(F)F)c3)[C@@H](C(F)(F)F)O2)cc1	7.04

Request: Need pIC50 of N#Cc1ccc(N2C[C@@H](COc3ccc(C(=O)O)cc3)O[C@@H]2C(F)(F)F)cc1C(F)(F)F , thanks.
Response: 6.44
